target: C-C chemokine receptor type 2 (Homo sapiens); assay: Displacement of [3H]-CCR2-RA from human CCR2b expressed in human U2OS cell membranes incubated for 2 hrs by scintillation counting method; set-up: species or system Cell membrane; conditions: read-out: Ki
Sequence (P41597 whole entry): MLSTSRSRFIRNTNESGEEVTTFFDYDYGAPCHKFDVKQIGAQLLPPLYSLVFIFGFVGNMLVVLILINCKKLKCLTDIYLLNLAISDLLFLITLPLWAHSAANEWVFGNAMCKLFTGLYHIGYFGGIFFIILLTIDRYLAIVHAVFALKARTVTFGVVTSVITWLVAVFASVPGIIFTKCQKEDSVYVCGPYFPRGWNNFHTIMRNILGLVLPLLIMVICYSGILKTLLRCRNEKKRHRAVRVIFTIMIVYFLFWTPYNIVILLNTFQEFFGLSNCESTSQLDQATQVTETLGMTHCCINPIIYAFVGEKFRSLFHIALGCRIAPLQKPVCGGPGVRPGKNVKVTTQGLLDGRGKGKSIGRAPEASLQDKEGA
pKi: −log10 of the molar value.

entry smiles | system under test | pKi
O=C(NCCN=C=S)c1ccc(Oc2ccc(Cl)cc2NS(=O)(=O)c2ccc(Cl)c(C(F)(F)F)c2)cc1 | C-C chemokine receptor type 2 (Homo sapiens) | 7.51
C=CC(=O)NCCNC(=O)c1ccc(Oc2ccc(Cl)cc2NS(=O)(=O)c2ccc(Cl)c(C(F)(F)F)c2)cc1 | C-C chemokine receptor type 2 (Homo sapiens) | 7.66
O=C(NCCNC(=O)c1ccc(S(=O)(=O)F)cc1)c1ccc(Oc2ccc(Cl)cc2NS(=O)(=O)c2ccc(Cl)c(C(F)(F)F)c2)cc1 | C-C chemokine receptor type 2 (Homo sapiens) | 7.05
N#CSCCNC(=O)c1ccc(Oc2ccc(Cl)cc2NS(=O)(=O)c2ccc(Cl)c(C(F)(F)F)c2)cc1 | C-C chemokine receptor type 2 (Homo sapiens) | 8.40
